# Test System: Tetanus toxin (Clostridium tetani (strain Massachusetts / E88), UniProt P04958)
# Sequence (P04958 2-457 limits assumed): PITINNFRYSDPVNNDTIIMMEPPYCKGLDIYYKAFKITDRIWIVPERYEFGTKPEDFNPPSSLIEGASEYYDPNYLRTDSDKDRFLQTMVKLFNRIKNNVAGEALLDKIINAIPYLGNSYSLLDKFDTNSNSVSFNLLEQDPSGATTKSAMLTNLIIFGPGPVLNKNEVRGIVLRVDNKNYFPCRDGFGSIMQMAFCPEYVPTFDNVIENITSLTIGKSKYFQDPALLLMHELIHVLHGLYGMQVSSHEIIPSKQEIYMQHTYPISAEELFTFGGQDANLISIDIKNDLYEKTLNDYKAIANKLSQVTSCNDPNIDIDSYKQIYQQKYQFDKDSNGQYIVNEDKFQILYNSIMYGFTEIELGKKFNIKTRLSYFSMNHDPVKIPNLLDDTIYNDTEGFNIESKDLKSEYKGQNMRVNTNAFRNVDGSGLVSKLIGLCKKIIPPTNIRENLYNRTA
# Sequence (P04958 458-1315 limits assumed): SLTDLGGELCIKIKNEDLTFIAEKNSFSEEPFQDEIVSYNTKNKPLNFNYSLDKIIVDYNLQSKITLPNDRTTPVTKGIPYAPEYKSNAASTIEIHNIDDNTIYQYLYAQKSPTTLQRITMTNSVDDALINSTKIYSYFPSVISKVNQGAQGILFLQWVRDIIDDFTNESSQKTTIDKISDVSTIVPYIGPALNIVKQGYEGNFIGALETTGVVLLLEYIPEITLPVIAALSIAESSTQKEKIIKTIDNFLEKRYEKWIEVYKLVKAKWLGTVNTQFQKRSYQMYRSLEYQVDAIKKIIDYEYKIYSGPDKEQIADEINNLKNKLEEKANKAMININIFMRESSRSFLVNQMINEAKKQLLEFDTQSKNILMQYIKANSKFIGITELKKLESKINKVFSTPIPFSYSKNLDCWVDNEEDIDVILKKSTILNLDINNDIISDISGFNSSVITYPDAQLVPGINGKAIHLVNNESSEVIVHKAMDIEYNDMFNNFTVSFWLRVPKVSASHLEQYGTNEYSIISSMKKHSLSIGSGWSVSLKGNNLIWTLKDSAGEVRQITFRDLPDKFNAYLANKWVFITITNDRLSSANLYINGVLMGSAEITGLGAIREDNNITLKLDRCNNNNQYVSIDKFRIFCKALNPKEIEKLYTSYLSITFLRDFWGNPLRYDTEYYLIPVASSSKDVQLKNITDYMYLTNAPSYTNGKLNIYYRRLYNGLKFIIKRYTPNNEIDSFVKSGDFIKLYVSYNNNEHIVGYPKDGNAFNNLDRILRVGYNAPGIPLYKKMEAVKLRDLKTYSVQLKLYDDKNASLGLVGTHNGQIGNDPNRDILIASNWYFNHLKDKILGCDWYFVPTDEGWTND
# Procedure Summary: Inhibition of tetanus neurotoxin (TeNt)
Metric Name: Ki

Consider the compound `N[C@@H](CCS(N)(=O)=O)[C@@H](S)C(=O)N[C@@H](Cc1ccc(O)cc1)C(=O)N[C@@H](Cc1c[nH]cn1)C(=O)O` and give its measured Ki. 5 µM

* * *

# Test System: Tetanus toxin (Clostridium tetani (strain Massachusetts / E88))
# Procedure Summary: Inhibition of tetanus neurotoxin (TeNt)
pKi: −log10 of the molar value.
Threshold rule: pKi greater than or equal to 5 is 1; below that, -1.

{"columns": ["Compound", "Qualitative Label"],
 "data": [
  ["NC(CS)c1cccc(S(N)(=O)=O)c1 (centres undefined)", -1],
  ["N[C@@H](CCS(N)(=O)=O)[C@H](S)C(=O)N[C@@H](Cc1ccc(O)cc1)C(=O)N[C@@H](Cc1c[nH]cn1)C(=O)O", -1],
  ["N[C@@H](c1cccc(S(N)(=O)=O)c1)[C@@H](S)C(=O)N[C@@H](Cc1ccc(O)cc1)C(=O)N[C@@H](Cc1c[nH]cn1)C(=O)NCc1ccccc1", 1]
]}

hey, is pKi for this one >= 5? `N[C@@H](CS)CCS(N)(=O)=O` -1

hey, is pKi for this one >= 5? C[C@@H](O)[C@H](NC(=O)[C@H](CCC(=O)O)NC(=O)[C@@H](Cc1ccccc1)NC(=O)C(S)[C@@H](N)CCC(=O)ON)C(=O)O (mixture of isomers) -1

* * *

# Test System: Tetanus toxin (Clostridium tetani (strain Massachusetts / E88))
# Procedure Summary: Inhibition of tetanus neurotoxin (TeNt)
Metric Name: pKi
Entry type: numeric. Quantity: pKi, the -log10 of concentration in molar units.

Some compounds with recorded pKi:
{"columns": ["Compound", "Metric Name", "Endpoint Value"],
 "data": [
  ["NC(=O)CC[C@@H](N)CS", "pKi", 3.60],
  ["C[C@@H](O)[C@H](NC(=O)[C@H](CCC(=O)O)NC(=O)[C@@H](Cc1ccccc1)NC(=O)C(S)[C@@H](N)CCC(=O)ON)C(=O)N[C@@H](CO)C(=O)O (mixture of isomers)", "pKi", 4.10]
]}

Any idea what pKi came out for `N[C@H](c1cccc(S(N)(=O)=O)c1)[C@@H](S)C(=O)N[C@@H](Cc1ccc(O)cc1)C(=O)N[C@@H](Cc1c[nH]cn1)C(=O)NCc1ccccc1` on Tetanus toxin (Clostridium tetani (strain Massachusetts / E88))? 5.22

* * *

Each record here notes measured Ki.
# Test System: Tetanus toxin (Clostridium tetani (strain Massachusetts / E88), UniProt P04958)
# Procedure Summary: Inhibition of tetanus neurotoxin (TeNt)
Just the number please, in µM, no unit attached.

{"columns": ["Test Smiles", "Ki / µM"],
 "data": [
  ["N[C@@H](c1cccc(S(N)(=O)=O)c1)[C@H](S)C(=O)N[C@@H](Cc1ccc(O)cc1)C(=O)N[C@@H](Cc1c[nH]cn1)C(=O)NCc1ccccc1", 9.6],
  ["N[C@@H](CCS(N)(=O)=O)[C@H](S)C(=O)N[C@@H](Cc1ccc(O)cc1)C(=O)N[C@@H](Cc1c[nH]cn1)C(=O)NCc1ccccc1", 6.8],
  ["N[C@H](c1cccc(S(N)(=O)=O)c1)[C@H](S)C(=O)N[C@@H](Cc1ccc(O)cc1)C(=O)N[C@@H](Cc1c[nH]cn1)C(=O)NCc1ccccc1", 4]
]}

Okay, now this molecule:
Consider the molecule `N[C@@H](CCS(N)(=O)=O)[C@@H](S)C(=O)N[C@@H](Cc1ccc(O)cc1)C(=O)N[C@@H](Cc1cnc[nH]1)C(=O)NCc1ccccc1` and give its measured Ki. 3.9
